# Experimental parameters: 313.15 K; Liquid
Attribute measured: vapor or sublimation pressure (kPa)

Example entries and their recorded answers appear below.
* C1CCOC1 [tetrahydrofuran] | 40.62
* C1CCOCC1 [tetrahydropyran] | 18.66
* CCCCCCl | 8.45

[1] C1COCCO1
[2] C1COCO1
stdin: Which entry has a larger number for vapor or sublimation pressure, 1 or 2 ? Pick one and reply with its label.
stdout: 2

###

# Experimental parameters: 298.15 K; Liquid
Attribute measured: vapor or sublimation pressure (kPa)

[P] C1CCOC1 [tetrahydrofuran]
[Q] C1COCO1
stdin: Which is greater in vapor or sublimation pressure, the first item P or the second item Q ? When you have decided, please share the label of that item.
stdout: P

[a] CCCCCCl
[b] C1CCOCC1 [tetrahydropyran]
stdin: Of a and b , whose reported vapor or sublimation pressure is numerically smaller? Kindly give the label for the entry you pick.
stdout: a

###

# Experimental parameters: 313.15 K; 101.33 kPa; Liquid
Attribute measured: mass density (kg/m3)

* C1CCOC1 [tetrahydrofuran] | 865.36
* C1CCOCC1 [tetrahydropyran] | 863.67
* C1COCCO1 | 1010.69
* CCCCCCl | 861.52
* C1COCO1 | 1039.88

###

# Experimental parameters: 298.15 K; 101.33 kPa; Liquid
Attribute measured: mass density (kg/m3)

- C1CCOCC1 [tetrahydropyran]: 878.81
- C1CCOC1 [tetrahydrofuran]: 881.95
- CCCCCCl: 877
- C1COCO1: 1058.62
- C1COCCO1: 1027.87

###

# Experimental parameters: 328.15 K; 101.33 kPa; Liquid
Attribute measured: mass density (kg/m3)

* CCCCCCl [1-chloropentane] | 846.33
* C1COCO1 [1,3-dioxolane] | 1020.86
* C1CCOCC1 [tetrahydropyran] | 848.29
* C1CCOC1 [tetrahydrofuran] | 848.68
* C1COCCO1 [1,4-dioxane] | 993.75

###

# Experimental parameters: 328.15 K; Liquid
Attribute measured: vapor or sublimation pressure (kPa)

* C1COCCO1 [1,4-dioxane] | 19.54
* C1COCO1 [1,3-dioxolane] | 49.01
* C1CCOC1 [tetrahydrofuran] | 70.61

[1] C1CCOCC1 [tetrahydropyran]
[2] CCCCCCl [1-chloropentane]
stdin: When their vapor or sublimation pressure values are compared, which is larger, 1 or 2 ? Could you answer with the label of the item you picked?
stdout: 1
(1: 33.95 kPa, 2: 16.4 kPa)
